// provenance: paper PMC2233901

Biological target: mBest2 (mouse bestrophin-2) (Mus musculus, UniProt Q8BGM5, S79T)
Sequence (Q8BGM5 whole entry S79T): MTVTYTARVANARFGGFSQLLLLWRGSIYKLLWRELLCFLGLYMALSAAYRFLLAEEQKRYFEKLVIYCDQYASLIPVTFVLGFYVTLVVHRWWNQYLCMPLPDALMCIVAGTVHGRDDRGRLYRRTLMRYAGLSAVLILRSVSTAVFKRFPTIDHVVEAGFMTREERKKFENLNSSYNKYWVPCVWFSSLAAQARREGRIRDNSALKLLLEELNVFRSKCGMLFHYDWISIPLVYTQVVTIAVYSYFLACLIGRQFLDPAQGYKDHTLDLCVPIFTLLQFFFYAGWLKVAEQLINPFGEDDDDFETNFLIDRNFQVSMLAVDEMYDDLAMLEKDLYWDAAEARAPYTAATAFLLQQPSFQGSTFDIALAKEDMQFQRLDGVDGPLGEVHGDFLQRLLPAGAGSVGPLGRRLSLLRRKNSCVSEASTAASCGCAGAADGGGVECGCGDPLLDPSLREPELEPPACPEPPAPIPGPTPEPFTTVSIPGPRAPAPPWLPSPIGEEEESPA
Test: whole-cell patch clamp, block of Cl current in HEK293
Type: cell-based
measure name: IC50 (mM)
Give bare numbers, in mM.

# input Report IC50 for N#CS [SCN] please.
# output 18.5
